Where do these numbers come from? They come from PubChem BioAssay AID1963984.

Tested on: 233499-124-R-J3-PDC spheroids with HUVEC/MSC, viability;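 further: spheroids exposed to agents for seven days before readout; percent viability relative to DMSO vehicle control taken as 100%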
Test: Anticancer human tumor 233499-124-R-J3-PDC patient-derived colon adenocarcinoma cell line growth inhibition [PI3K]
Conditions: second compound 0.316 µM; first compound 0.1 µM; stronger effect = lower value
For each entry below, report its viability, T/C value.

The recorded viability, T/C for entry CCCS(=O)(=O)Nc1ccc(F)c(C(=O)c2c[nH]c3ncc(-c4ccc(Cl)cc4)cc23)c1F + CC(Nc1ccc2c(c1)OCCn1cc(N3C(=O)OCC3C(F)F)nc1-2)C(N)=O equals 66.6%

# molecule CC1(C)CCC(Nc2ncc(C(F)(F)F)c(-c3c[nH]c4c(P(C)(C)=O)c(C#N)ccc34)n2)CN1 (stereo unspecified) + COc1c(OCCCN2CCOCC2)ccc2c3n(c(=NC(=O)c4cnc(N)nc4)nc12)CCN3 ; its viability, T/C = 29.4%

Lab note: measured viability, T/C of CCCS(=O)(=O)Nc1ccc(F)c(C(=O)c2c[nH]c3ncc(-c4ccc(Cl)cc4)cc23)c1F + COc1c(OCCCN2CCOCC2)ccc2c3n(c(=NC(=O)c4cnc(N)nc4)nc12)CCN3 was 35.8%

get_value(item= C[C@@H](NC(=O)c1ncnc(N)c1Cl)c1ncc(C(=O)Nc2cc(C(F)(F)F)c(Cl)cn2)s1 + COc1c(OCCCN2CCOCC2)ccc2c3n(c(=NC(=O)c4cnc(N)nc4)nc12)CCN3 , readout=viability, T/C) returns 31.8%

Note to self: viability, T/C recorded for CCN1CCN(Cc2ccc(Nc3ncc(F)c(-c4cc(F)c5nc(C)n(C(C)C)c5c4)n3)nc2)CC1 + CC(Nc1ncnc2nc[nH]c12)c1cc2cccc(Cl)c2c(=O)n1-c1ccccc1 was 84.2%

The recorded viability, T/C for Cn1nccc1Nc1nccc(-c2ccn(C(CO)c3ccc(Cl)c(F)c3)c(=O)c2)n1 (stereo unspecified) + COc1c(OCCCN2CCOCC2)ccc2c3n(c(=NC(=O)c4cnc(N)nc4)nc12)CCN3 is 37.7%

So for CCCS(=O)(=O)Nc1ccc(F)c(C(=O)c2c[nH]c3ncc(-c4ccc(Cl)cc4)cc23)c1F + CC(Nc1ncnc2nc[nH]c12)c1cc2cccc(Cl)c2c(=O)n1-c1ccccc1 , the logged viability, T/C turned out to be 103%

What the record says about C#Cc1c(F)ccc2cc(O)cc(-c3ncc4c(N5CC6CCC(C5)N6)nc(OCC56CCCN5CC(F)C6)nc4c3F)c12 (stereo unspecified) + COc1c(OCCCN2CCOCC2)ccc2c3n(c(=NC(=O)c4cnc(N)nc4)nc12)CCN3 : viability, T/C is 26%

# viability, T/C (molecule: CCN1CCN(Cc2ccc(Nc3ncc(F)c(-c4cc(F)c5nc(C)n(C(C)C)c5c4)n3)nc2)CC1 + CC(Nc1ccc2c(c1)OCCn1cc(N3C(=O)OCC3C(F)F)nc1-2)C(N)=O ) is 51.1%

The recorded viability, T/C for C=CC(=O)N1CCN(c2nc(=O)n(-c3c(C)ccnc3C(C)C)c3nc(-c4c(O)cccc4F)c(F)cc23)C(C)C1 (stereo unspecified) + Cc1nc(NC(=O)N2CCCC2C(N)=O)sc1-c1ccnc(C(C)(C)C(F)(F)F)c1 is 96.7%

viability, T/C reading for CCN1CCN(Cc2ccc(Nc3ncc(F)c(-c4cc(F)c5nc(C)n(C(C)C)c5c4)n3)nc2)CC1 + COc1c(OCCCN2CCOCC2)ccc2c3n(c(=NC(=O)c4cnc(N)nc4)nc12)CCN3 : 20.7%
